System: adult S. japonicum
assay.notes: microbe, parasite or virus in culture
Format: cell-based
test.context: adult worms, 10 μM, 48 h
metric.name: Killing activity 48hr (%D)
The response must be a number in %D with no trailing unit.

Below, each entry is followed by its recorded Killing activity 48hr result.
N#Cc1c(-c2ccc(OC/C=C/CBr)cc2)no[n+]1[O-] = 50.0
N#Cc1c(-c2ccc(OCCCBr)cc2)no[n+]1[O-] = 90.0
N#Cc1c(-c2ccc(Br)cc2)no[n+]1[O-] = 70.0
N#Cc1c(-c2ccc(COc3ccccc3)cc2)no[n+]1[O-] = 87.5
COc1ccc(-c2no[n+]([O-])c2C#N)cc1 = 100.0

Look up Killing activity 48hr for this compound: `Cc1ccc(-c2no[n+]([O-])c2C#N)cc1`
50.0

What does the record list as Killing activity 48hr for `C#CCOc1ccc(-c2no[n+]([O-])c2C#N)cc1` ?
50.0

Which Killing activity 48hr value belongs to `COc1ccc(-c2no[n+]([O-])c2CO)cc1` ?
37.5

I am curious: what Killing activity 48hr value has been reported for `N#Cc1c(-c2ccc(CBr)cc2)no[n+]1[O-]` ?
66.7

Sample O=C(C1CCCCC1)N1CC(=O)N2CCc3ccccc3C2C1 (centres unmarked) [PZQ, praziquantel, reference compound] — what was its Killing activity 48hr?
25.0

Name the reported Killing activity 48hr value associated with the compound `Cc1ccc2cccc(OCc3ccc(-c4no[n+]([O-])c4C#N)cc3)c2n1`
57.1

###

Test system: adult S. japonicum
assay.notes: microbe, parasite or virus in culture
Format: cell-based
test.context: Schistosoma japonicum; adult worms, 25 μM, 24 h; read-out: Killing activity 24hr
Protocol: ICR mice (20–22 g), were obtained from the Shanghai Sub-Center of Experimental Animals, Chinese Academy of Sciences. They were maintained at the Department of Experimental Animals, Jiangsu Institute of Parasitic Diseases. […] Adult worms were cultured in a 24-well culture plate for 30–60 min at 37 °C, in a humid atmosphere with 5 % CO2. […] The adult worm mobility and parasite survival rates were monitored using an inverted phase contrast microscope, at 24, 48 and 72 h. […]
The entries below are paired with their reported killing at 25 µM.
Write the value in % as a bare number.

Can you look up the measured killing at 25 µM of C#CCOc1ccc(-c2no[n+]([O-])c2C#N)cc1 [Compound 20] for me?
50

Record request: killing at 25 µM value, item COc1ccc(-c2no[n+]([O-])c2CO)cc1 [Compound 4a]
50

Entry Cc1ccc2cccc(OCc3ccc(-c4no[n+]([O-])c4C#N)cc3)c2n1 [Compound 28] : reported killing at 25 µM = ?
100

Quick one: killing at 25 µM for N#Cc1c(-c2ccc(Br)cc2)no[n+]1[O-] [Compound 7c] ?
77.8

What measured killing at 25 µM goes with N#Cc1c(-c2ccc(COc3ccc(C=O)cc3)cc2)no[n+]1[O-] [Compound 26] ?
85.7

###

System: adult S. japonicum
assay.notes: microbe, parasite or virus in culture
Assay type: cell-based
test.context: adult worms, 10 μM, 48 h
metric.name: Killing activity 48hr

CC(C)CCOc1ccc(-c2no[n+]([O-])c2C#N)cc1 = 16.7%D
N#Cc1c(-c2ccc(COc3ccc(C=O)cc3)cc2)no[n+]1[O-] = n.e.
N#Cc1c(-c2ccc(COc3ccc4ccccc4c3C=O)cc2)no[n+]1[O-] = n.e.
